Target: T1, B3GNT2 (Homo sapiens, UniProt Q9NY97)
T1 construct: The respective ORFs of candidate genes [CD274 (NM_014143), MCL1 (NM_021960), JUNB (NM_002229), and B3GNT2 (NM_006577)] were synthesized; expressed in transfected cells; host or cells: A375 melanoma cells (lentiviral ORF overexpression)
T1 sequence (Q9NY97 1-397): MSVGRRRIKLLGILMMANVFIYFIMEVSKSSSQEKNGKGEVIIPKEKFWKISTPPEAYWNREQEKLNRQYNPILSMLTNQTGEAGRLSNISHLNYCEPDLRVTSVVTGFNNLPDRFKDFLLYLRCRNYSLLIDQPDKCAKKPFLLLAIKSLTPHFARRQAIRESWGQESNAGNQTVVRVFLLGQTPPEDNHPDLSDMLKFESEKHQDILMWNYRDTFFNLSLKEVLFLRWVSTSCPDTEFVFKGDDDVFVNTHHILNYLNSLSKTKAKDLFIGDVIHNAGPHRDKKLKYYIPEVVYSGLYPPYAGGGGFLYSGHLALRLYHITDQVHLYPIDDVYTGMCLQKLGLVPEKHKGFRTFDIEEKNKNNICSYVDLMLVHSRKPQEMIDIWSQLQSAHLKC
Experiment: Co-IP of FLAG-tagged B3GNT2 followed by mass spectrometry
Type: cell-based
Conditions: Co-IP followed by mass spectrometry of B3GNT2; N-term tag, FLAG pull-down

molecule	N-term FLAG
PURA (protein) ADRDSGSEQGGAALGSGGSLGHPGSGSGSGGGGGGGGGGGGSGGGGGGAPGGLQHETQELASKRVDIQNKRFYLDVKQNAKGRFLKIAEVGAGGNKSRLTLSMSVAVEFRDYLGDFIEHYAQLGPSQPPDLAQAQDEPRRALKSEFLVRENRKYYMDLKENQRGRFLRIRQTVNRGPGLGSTQGQTIALPAQGLIEFRDALAKLIDDYGVEEEPAELPEGTSLTVDNKRFFFDVGSNKYGVFMRVSEVKPTYRNSITVPYKVWAKFGHTFCKYSEEMKKIQEKQREKRAACEQLHQQQQQQQEETAAATLLLQGEEEGEED	0
LSM12 (protein) AAPPGEYFSVGSQVSCRTCQEQRLQGEVVAFDYQSKMLALKCPSSSGKPNHADILLINLQYVSEVEIINDRTETPPPLASLNVSKLASKARTEKEEKLSQAYAISAGVSLEGQQLFQTIHKTIKDCKWQEKNIVVMEEVVITPPYQVENCKGKEGSALSHVRKIVEKHFRDVESQKILQRSQAQQPQKEAALSS	4
TIMP3 (protein) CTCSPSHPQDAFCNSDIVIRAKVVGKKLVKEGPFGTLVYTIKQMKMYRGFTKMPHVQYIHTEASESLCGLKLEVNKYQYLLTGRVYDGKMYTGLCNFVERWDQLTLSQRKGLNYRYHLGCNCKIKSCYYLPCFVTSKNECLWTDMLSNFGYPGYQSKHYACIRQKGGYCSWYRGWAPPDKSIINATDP	0
SPARC (protein) APQQEALPDETEVVEETVAEVTEVSVGANPVQVEVGEFDDGAEETEEEVVAENPCQNHHCKHGKVCELDENNTPMCVCQDPTSCPAPIGEFEKVCSNDNKTFDSSCHFFATKCTLEGTKKGHKLHLDYIGPCKYIPPCLDSELTEFPLRMRDWLKNVLVTLYERDEDNNLLTEKQKLRVKKIHENEKRLEAGDHPVELLARDFEKNYNMYIFPVHWQFGQLDQHPIDGYLSHTELAPLRAPLIPMEHCTTRFFETCDLDNDKYIALDEWAGCFGIKQKDIDKDLVI	0
IL13RA2 (protein) DTEIKVNPPQDFEIVDPGYLGYLYLQWQPPLSLDHFKECTVEYELKYRNIGSETWKTIITKNLHYKDGFDLNKGIEAKIHTLLPWQCTNGSEVQSSWAETTYWISPQGIPETKVQDMDCVYYNWQYLLCSWKPGIGVLLDTNYNLFYWYEGLDHALQCVDYIKADGQNIGCRFPYLEASDYKDFYICVNGSSENKPIRSSYFTFQLQNIVKPLPPVYLTFTRESSCEIKLKWSIPLGPIPARCFDYEIEIREDDTTLVTATVENETYTLKTTNETRQLCFVVRSKVNIYCSDDGIWSEWSDKQCWEGEDLSKKTLLRFWLPFGFILILVIFVTGLLLRKPNTYPKMIPEFFCDT	3
S100A7 (protein) SNTQAERSIIGMIDMFHKYTRRDDKIEKPSLLTMMKENFPNFLSACDKKGTNYLADVFEKKDKNEDKKIDFSEFLSLLGDIATDYHKQSHGAAPCSGGSQ	3
MTCH2 (protein, UniProt Q9Y6C9 2-303, looked up) Mitochondrial carrier homolog …: ADAASQVLLGSGLTILSQPLMYVKVLIQVGYEPLPPTIGRNIFGRQVCQLPGLFSYAQHIASIDGRRGLFTGLTPRLCSGVLGTVVHGKVLQHYQESDKGEELGPGNVQKEVSSSFDHVIKETTREMIARSAATLITHPFHVITLRSMVQFIGRESKYCGLCDSIITIYREEGILGFFAGLVPRLLGDILSLWLCNSLAYLVNTYALDSGVSTMNEMKSYSQAVTGFFASMLTYPFVLVSNLMAVNNCGLAGGCPPYSPIYTSWIDCWCMLQKEGNMSRGNSLFFRKVPFGKTYCCDLKMLI	4
SRP14 (protein) VLLESEQFLTELTRLFQKCRTSGSVYITLKKYDGRTKPIPKKGTVEGFEPADNKCLLRATDGKKKISTVVSSKEVNKFQMAYSNLLRANMDGLKKRDKKNKTKKTKAAAAAAAAAPAAAATAPTTAATTAATAAQ	0
TAGLN (protein) ANKGPSYGMSREVQSKIEKKYDEELEERLVEWIIVQCGPDVGRPDRGRLGFQVWLKNGVILSKLVNSLYPDGSKPVKVPENPPSMVFKQMEQVAQFLKAAEDYGVIKTDMFQTVDLFEGKDMAAVQRTLMALGSLAVTKNDGHYRGDPNWFMKKAQEHKREFTESQLQEGKHVIGLQMGSNRGASQAGMTGYGRPRQIIS	2
NAP1L1 (protein) ADIDNKEQSELDQDLDDVEEVEEEETGEETKLKARQLTVQMMQNPQILAALQERLDGLVETPTGYIESLPRVVKRRVNALKNLQVKCAQIEAKFYEEVHDLERKYAVLYQPLFDKRFEIINAIYEPTEEECEWKPDEEDEISEELKEKAKIEDEKKDEEKEDPKGIPEFWLTVFKNVDLLSDMVQEHDEPILKHLKDIKVKFSDAGQPMSFVLEFHFEPNEYFTNEVLTKTYRMRSEPDDSDPFSFDGPEIMGCTGCQIDWKKGKNVTLKTIKKKQKHKGRGTVRTVTKTVSNDSFFNFFAPPEVPESGDLDDDAEAILAADFEIGHFLRERIIPRSVLYFTGEAIEDDDDDYDEEGEEADEEGEEEGDEENDPDYDPKKDQNPAEC	0
